For each of the binders below, state its pKd.
- testedTarget: T1, HER3 extracellular domain 4, biotinylated (N-terminal AviTag and His6 tag) (human, biotin (in vitro biotinylation, AviTag))
- T1 construct: HER3 (ErbB3) extracellular domain 4, human, residues 500-643 of UniProt entry P21860; also called HER3d4; HER3 domain 4; source: Sf9 insect cells (baculovirus), secreted, purified (IMAC, Superdex 75), biotinylated in vitro; not shown: AviTag, N-terminal, kept
- T1 chain: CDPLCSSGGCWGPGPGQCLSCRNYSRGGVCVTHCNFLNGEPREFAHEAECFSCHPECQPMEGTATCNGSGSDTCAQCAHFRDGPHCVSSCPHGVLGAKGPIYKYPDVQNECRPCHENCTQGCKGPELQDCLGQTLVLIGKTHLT
- measurementNotes: SPR; ProteOn XPR36, NeutrAvidin NLC chip; biotinylated HER3d4 immobilised; monomeric DARPins injected at 2.5, 7.5, 22, 67 and 200 nM (duplicates), 60 µl/min, 5 min association, 5 min dissociation; PBS with 0.005% Tween-20; kinetic titration model
- conditionSet: both partners purified
Scale explanation: pKd corresponds to minus log10 of a concentration expressed in moles per litre.

Q: Report pKd for DARPin D7 (designed binder, N3C DARPin selected by ribosome display; source: E. coli XL1 Blue, purified (HisPur Cobalt Spin Plates)) GSDLGKKLLEATRAGQDDEVRILMANGADVNAQDVSGQTPLHLAAIWGHLEIVEVLLKTGADVNAQDWFGETPLHLAAVQGHLEIVEVLLKTGADVNAWDAYGHTPLHLAANYGHLEIVEVLLKHGADVNAQDKFGKTPFDLAIDNGNEDIAEVLQKAAKLN
Ans: 8.12

Q: Report pKd for DARPin D5 (His6- and FLAG-tagged form used for characterisation) (designed binder, N2C DARPin selected by ribosome display; source: E. coli XL1 Blue, purified (HisPur Cobalt Spin Plates)) GSDLGKKLLEAARAGQDDEVRILMANGADVNAFDHNGSTPLHLAAAIGHLEIVEVLLKYGADVNAEDNWGNTPLHQAAWVGHLEIVEVLLKNGADVNAQDKFGKTAFDISIDNGNEDLAEILQKLN
Ans: 8.16

Q: Report pKd for DARPin D4 (designed binder, N2C DARPin selected by ribosome display; source: E. coli XL1 Blue, purified (HisPur Cobalt Spin Plates)) GSDLGKKLLEAARAGQDDEVRILMANGADVNAFDHNGSTPLHLAAAIGHLEIVEVLLKYGADVNAEDNWGNTPLHQAAWVGHREIVEVLLKYGADVNAQDKFGKTAFDISIDNGNEDLAEILQKLN
Ans: 8.36

Q: Report pKd for DARPin D1 (designed binder, N2C DARPin selected by ribosome display; source: E. coli XL1 Blue, purified (HisPur Cobalt Spin Plates)) GSDLGKKLLEAARAGQDDEVRILMTNGADVNAFDHNGSTPLHLAAAIGHLEIVEVLLKYGADVNAEDNWGNTPLHQAAWVGHREIVEVLLKYGVDVNAQDKFGKTAFDISIDNGNEDLAEILQKLN
Ans: 8.12
